- Test system: EKVX NSCLC
- Procedure Details: NCI-60 one-dose screen, 48 h (100 = growth as untreated, 0 = no growth, -100 = all killed)
- Condition Summary: 10 µM unless noted
About 83,000 compounds went through this panel and 20% of them were active in at least one assay; those are over-represented in the sample as a whole. Activity calls are given as the source filed them. How the source made its calls: active means growth percent below 10; inactive means the rest.
Readout Kind: growth

Compound: Nc1ccccc1SC(CC(=O)c1ccccc1)c1cccc([N+](=O)[O-])c1 (configuration not stated)
growth: 96.5% (inactive)
--
Compound: CCOP(C)(=O)/C(Cc1ccc(OC)c(OC)c1)=N\O (configuration not stated)
growth: 98.3% (inactive)
--
Compound: COc1cc(C2c3cc4c(cc3C(OC(=O)C[n+]3ccccc3)C3COC(=O)C23)OCO4)cc(OC)c1OC (configuration not stated)
growth: 42.5% (inactive)
--
Compound: COc1ccc(-n2[nH]c3c(cnc4ccccc43)c2=O)cc1
growth: 89% (inactive)
--
Compound: O=C(NC(=O)c1ccc(F)c(Cl)c1)NC1CC1
growth: 89.6% (inactive)
--
Compound: CCNCc1ccccc1
growth: 111% (inactive)
--
Compound: CC(=O)Nc1ccc2oc(=O)ccc2c1
growth: 94.6% (inactive)
--
Compound: CC1CCC(=O)N1c1ccc(N)cc1 (configuration not stated)
growth: 104% (inactive)
--
Compound: CS/C(=C\c1ccc(C(=O)c2ccc(C)cc2)n1C)S(C)=O (configuration not stated)
growth: 63.8% [100 µM] (inactive)
--
Compound: O=C(O)/C=C/C=C/c1ccccc1
growth: 100% (inactive)

The recorded growth for C/C=C(/C(=O)NC(N)=O)C(C)C is 112% (inactive)

get_value(item= N#Cc1c(N)nc2c(c(-c3ccc(Cl)cc3)nn2-c2ccccc2)c1C#N , readout=growth) returns 83% [100 µM] (inactive)
